Tested on: SNB-19 CNS
protocol: NCI tumour cell line growth inhibition, 48 h
observable: TGI

molecule	observable	result
Nc1nc(O)c2ncn([C@H]3CC[C@@H](CO)O3)c2n1	TGI	> 100 µM
C/C(=N/N=C(\[O-])c1ccncc1)C(F)(F)F.C/C(=N\N=C(/[O-])c1ccncc1)C(F)(F)F.[Ni+2]	TGI	> 1 µM
COC(=O)c1cc2c(c3c1CC(Cc1ccccc1)C3=O)CCC2 (stereo unspecified)	TGI	> 100 µM
O=C(N/N=C/c1ccc([N+](=O)[O-])cc1)Nc1ccc(C(=O)O)cc1	TGI	> 100 µM
OCCNC1c2cc(Cl)ccc2-c2c(Cl)cc(Cl)cc21 (stereo unspecified)	TGI	> 100 µM
C=CNC(=O)NC(=O)CSc1nnc(-c2ccccc2NC(=O)C(F)(F)F)c(=O)[nH]1	TGI	> 100 µM
